biological target: T1, HLA-A2/E6 (29-38) tetramer (human; HPV 16); assay: tetramer flow cytometry; transfected Jurkat-derived cells, CD8+ population
T1 construct: also called E6(29-38) peptide-MHC tetramer; E6(29-38)-loaded tetramer
measurement-type: % cells in E6 tet-/CD8- quadrant (%)
Note: unit % is implicit; provide only the numeric part.

Looking up TCR 22 (codon optimized, cysteine modified version) (TCR, V domains shown) V domain 1: GQNIDQPTEMTATEGAIVQINCTYQTSGFNGLFWYQQHAGEAPTFLSYNVLDGLEEKGRFSSFLSRSKGYSYLLLKELQMKDSASYLCAVRARMDSNYQLIWGAGTKLIIKP V domain 2: DAGVTQSPTHLIKTRGQHVTLRCSPISGHKSVSWYQQVLGQGPQFIFQYYEKEERGRGNFPDRFSARQFPNYSSELNVNALLLGDSALYLCASSRTENYGYTFGSGTRLTVVE , I found its % cells in E6 tet-/CD8- quadrant recorded as 1.38
